Test system: RPMI-8226 leukemia
Pick one and only one: active, inactive

Which outcome was entered for the compound CCCNc1nc2ccccc2c2c1S(=O)(=O)c1ccc(Cl)cc1C2=O in this test?
active

# iterate: CC(C)COC(=O)c1ccc2[nH]c(O)c(C=Nc3ccc(S(N)(=O)=O)cc3)c2c1
inactive

# iterate: CCn1c2ccccc2c2cc(C(O)c3cccc4ncccc34)ccc21 (centres undefined)
active

# iterate: COc1ccc2nc(NC(=O)c3cccnc3Nc3cc(OC)c(OC)c(OC)c3)sc2c1
inactive

# iterate: c1ccc(CNc2nc(Nc3ccccc3)nc3ccccc23)cc1
inactive

# iterate: O=C1c2nc3n(c2C(=O)c2c1nc1n2CCC1)CCC3
inactive

# iterate: O=C(Nc1ccc(I)cc1F)c1cc(Cl)ccc1O
active

# iterate: Cc1c(Sc2ccccc2)[n+](=O)c2cc(Cl)c(Cl)cc2n1[O-]
inactive

# iterate: COC(=O)[C@@H](C)C[C@H](Cc1ccccc1)NC(=O)c1csc([C@@H](C[C@H](C(C)C)N(C)C(=O)[C@H](C)NC(=O)[C@H]2CCCCN2C)OC(C)=O)n1
inactive
